Assay: Antiproliferative activity against human HCT116 cells expressing wild type p53
Type: functional, cell-based
Conditions: HCT-116
MEASUREMENT_NAME: pIC50
pIC50 field: float, defined as -log10 of concentration (mol/L).

Sure, the documented pIC50 for CCC[C@H]1N(C(=O)c2cnccc2C(F)(F)F)CCC[C@@]1(Oc1ccc(C(F)(F)F)cc1)C(=O)N1CCC(Oc2cccc(C(=O)O)n2)CC1 is 5.06

---

Target: E3 ubiquitin-protein ligase Mdm2 (Homo sapiens, UniProt Q00987)
Sequence (Q00987 whole entry): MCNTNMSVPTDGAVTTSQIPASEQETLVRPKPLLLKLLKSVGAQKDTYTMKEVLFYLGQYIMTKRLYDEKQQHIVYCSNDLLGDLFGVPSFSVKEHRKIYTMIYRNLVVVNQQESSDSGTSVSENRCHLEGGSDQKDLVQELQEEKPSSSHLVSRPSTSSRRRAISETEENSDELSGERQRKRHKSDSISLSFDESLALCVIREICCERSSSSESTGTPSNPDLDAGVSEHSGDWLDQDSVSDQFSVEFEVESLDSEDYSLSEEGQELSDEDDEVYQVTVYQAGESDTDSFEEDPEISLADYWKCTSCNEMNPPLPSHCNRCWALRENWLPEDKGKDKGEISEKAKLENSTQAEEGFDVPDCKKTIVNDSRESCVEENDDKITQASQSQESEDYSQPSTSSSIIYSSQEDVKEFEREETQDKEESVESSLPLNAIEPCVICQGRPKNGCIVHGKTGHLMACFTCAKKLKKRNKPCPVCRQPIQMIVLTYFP
Assay: Binding affinity to human MDM2 assessed as inhibition of interaction with p53 by fluorescence polarization assay
Recorded IC50 by entry
Quick note: number first, unit second.

Example entries begin here.
Sure, the documented IC50 for CCC[C@H]1N(C(=O)c2cnccc2C(F)(F)F)CCC[C@@]1(Oc1ccc(C(F)(F)F)cc1)C(=O)N1CCC(Oc2cc(C(N)=O)ccn2)CC1 is 8.72 µM

Sure, the documented IC50 for CCC[C@H]1N(C(=O)c2cnccc2C(F)(F)F)CCC[C@@]1(Oc1ccc(C(F)(F)F)cc1)C(=O)N1CCC(Oc2cccc(Cl)c2)CC1 is 2.1 µM

Sure, the documented IC50 for CCC[C@H]1N(C(=O)c2cnccc2C(F)(F)F)CCC[C@@]1(Oc1ccc(C(F)(F)F)cc1)C(=O)N1CCC(Oc2ccccc2C#N)CC1 is 8.71 µM

Sure, the documented IC50 for CCC[C@H]1N(C(=O)c2cnccc2C(F)(F)F)CCC[C@@]1(Oc1ccc(C(F)(F)F)cc1)C(=O)N1CCC(Oc2ccc(C#N)cn2)CC1 is 0.492 µM

Sure, the documented IC50 for CCC[C@H]1N(C(=O)c2cnccc2C(F)(F)F)CCC[C@@]1(Oc1ccc(C(F)(F)F)cc1)C(=O)N1CCC(Oc2cccc(C(F)(F)F)n2)CC1 is 2.04 µM

Here is another compound to look at.
Sure, the documented IC50 for CCC[C@H]1N(C(=O)c2cnccc2C(F)(F)F)CCC[C@@]1(Oc1ccc(C(F)(F)F)cc1)C(=O)N1CCC(Cc2ccccc2)CC1 is 5.83 µM

---

Target: UniProtKB Q00987
MEASUREMENT_NAME: Kd
Quick note: number first, unit second.

Sure, the documented Kd for O=C(c1cnccc1C(F)(F)F)N1CCCC(Oc2ccc(C(F)(F)F)cc2)(C(=O)N2CCN(c3ccccn3)CC2)C1 (stereo unspecified) is 500 nM

---

Recorded pIC50 by entry
Target: E3 ubiquitin-protein ligase Mdm2 (Homo sapiens, UniProt Q00987)
Assay: Binding affinity to human MDM2 assessed as inhibition of interaction with p53 by fluorescence polarization assay
pIC50 field: float, defined as -log10 of concentration (mol/L).

Sure, the documented pIC50 for CCC[C@H]1N(C(=O)c2cnccc2C(F)(F)F)CCC[C@@]1(Oc1ccc(C(F)(F)F)cc1)C(=O)N1CCC(Oc2cccc(C)c2)CC1 is 6.18

Sure, the documented pIC50 for CCC[C@H]1N(C(=O)c2cnccc2C(F)(F)F)CCC[C@@]1(Oc1ccc(C(F)(F)F)cc1)C(=O)N1CCC(Oc2ncccc2CN)CC1 is 5.11

Sure, the documented pIC50 for CCC[C@H]1N(C(=O)c2cnccc2C(F)(F)F)CCC[C@@]1(Oc1ccc(C(F)(F)F)cc1)C(=O)N1CCC(Oc2ccccc2C)CC1 is 5.18

Sure, the documented pIC50 for CCC[C@H]1N(C(=O)c2cnccc2C(F)(F)F)CCC[C@@]1(Oc1ccc(C(F)(F)F)cc1)C(=O)N1CCC(Oc2cc(C#N)ccn2)CC1 is 6.53

Next:
Sure, the documented pIC50 for CCC[C@H]1N(C(=O)c2cnccc2C(F)(F)F)CCC[C@@]1(Oc1ccc(C(F)(F)F)cc1)C(=O)N1CCC(Oc2cccc(C#N)n2)CC1 is 6.16

Sure, the documented pIC50 for CCC[C@H]1N(C(=O)c2cnccc2C(F)(F)F)CCC[C@@]1(Oc1ccc(C(F)(F)F)cc1)C(=O)N1CCC(Oc2ccccc2)CC1 is 5.62

Sure, the documented pIC50 for CCC[C@H]1N(C(=O)c2cnccc2C(F)(F)F)CCC[C@@]1(Oc1ccc(C(F)(F)F)cc1)C(=O)N1CCC(Oc2ccccn2)CC1 is 6.82
